tested on: SNB-75 CNS; assay: NCI-60 one-dose screen, 48 h (100 = growth as untreated, 0 = no growth, -100 = all killed); settings: 10 µM unless noted
This is part of a sample that, as a whole, favours compounds with a hit. Of some 83,000 tested, about 20% had one in any assay.
Note to self: values exactly at 50% are Y. So growth at or above 50% is Y, below is N.

Req: Kindly determine if growth recorded for CCOC(=O)CC1C(COC(=O)NC)OC(n2cnc3c(NC(=O)Nc4ccccc4)ncnc32)C1O[Si](C)(C)C(C)(C)C (stereo not given) is above or exactly 50%.
Resp: N

Req: Kindly determine if growth recorded for COc1ccc(-c2nc(NN)c3c(C)nn(-c4ccc(F)cc4)c3n2)cc1 is above or exactly 50%.
Resp: N

Req: Kindly determine if growth recorded for Brc1ccc2[nH]cc(-c3nc(-c4c[nH]c5ccncc45)cs3)c2c1 is above or exactly 50%.
Resp: Y

Req: Kindly determine if growth recorded for COc1ccc2sc3c(NCCCN(C)C)nc4ccccc4c3c(=O)c2c1 is above or exactly 50%.
Resp: Y

Req: Kindly determine if growth recorded for CCc1cccc2c3c(sc12)C(c1ccc(F)cc1)C(C#N)=C(N)O3 (stereo not given) is above or exactly 50%.
Resp: N

* * *

test system: SK-OV-3 ovarian; assay: NCI-60 one-dose screen, 48 h; conditions: 10 µM unless noted
Compounds without any hit were thinned out: in the full panel of roughly 83,000, 20% have a hit. The source made the active and inactive calls. Rule for the calls: active = growth percent below 10; inactive = the rest.
Answer with one of the outcomes given here: active, inactive

Req: What did the test return for COc1ccc(NC(=O)n2nc(/C=C\c3ccc(O)c(OC)c3)cc2/C=C\c2ccc(O)c(OC)c2)cc1 ?
Resp: inactive

Req: What did the test return for C#Cc1cccc(NC(=O)c2ccc(NC(=O)C=C)cc2)c1 ?
Resp: inactive

Req: What did the test return for CC(C)C(=O)Nc1ccc(-c2nc(-c3cccc(OCCN4CCOCC4)c3)c(-c3ccnc(Br)c3)[nH]2)cc1 ?
Resp: inactive

Req: What did the test return for CCOC(=O)c1cn2ncnc(Oc3ccc(NC(=O)NCCN4CCN(C)CC4)c(Cl)c3)c2c1C ?
Resp: inactive

Req: What did the test return for O=c1n(Cc2ccc3ccccc3c2)ccn1Cc1ccc2ccccc2c1 ?
Resp: inactive

Req: What did the test return for O=C(/C=C/c1cccc2ccccc12)c1ccc(NC(=O)c2ccccc2CN2C(=O)c3ccccc3C2=O)cc1 ?
Resp: inactive

Req: What did the test return for COc1nc2ccc(C)cc2cc1-c1nc2c(cnn2-c2ccccc2)c(=O)[nH]1 ?
Resp: inactive

Req: What did the test return for CCCC1CCC(O)(C(C)(O)C(=O)NC2C(=O)N3NCCCC3C(=O)N(O)C(C)C(=O)N3NCCCC3C(=O)N3NCC(O)CC3C(=O)NC(C)C(=O)OC2C(C)C)OC1CC (stereo not given) ?
Resp: active

Req: What did the test return for COc1cccc(OC)c1C(=O)N[C@@H]1C(=O)N2[C@@H]1SC(C)(C)[C@@H]2C(=O)O ?
Resp: inactive

Req: What did the test return for Cc1nc2ccccc2c(/C=C/c2ccccc2)c1C(=O)/C=C/c1ccc(C(F)(F)F)cc1 ?
Resp: active

Req: What did the test return for N#C/C(=C\c1cccc2cnccc12)n1nnc2cccc(F)c21 ?
Resp: inactive

Req: What did the test return for CCN1C(=O)N(CC)C2Nn3c(s/c(=C\c4ccc([N+](=O)[O-])cc4)c3=O)=NC21 (stereo not given) ?
Resp: inactive

Req: What did the test return for CCc1cccc2c1S/C(=C/c1ccc(Cl)cc1)C2=O ?
Resp: inactive

Req: What did the test return for CC1=C([Se]CC(OC(=O)[C@@H](CSSC(C)(C)C)NC(=O)OC(C)(C)C)C(=O)NC(C)(C)C)C(=O)c2ccccc2C1=O (stereo not given in full) ?
Resp: active

Req: What did the test return for Cc1cc(N2CCCC2)nc(N(CCCNc2ccnc3cc(Cl)ccc23)Cc2ccccn2)n1 ?
Resp: inactive

Req: What did the test return for c1cc(-c2nnc(SSc3ncnc4nc[nH]c34)o2)ccn1 ?
Resp: inactive

Req: What did the test return for O=C(Nc1ccc(Cl)cc1F)c1ccccc1O ?
Resp: inactive

Req: What did the test return for C/C(=N/NC(N)=S)c1sc(Nc2cccc(Cl)c2)nc1C ?
Resp: inactive

Req: What did the test return for CCc1ccc(Oc2c(-c3ccc(OCc4ccc(Cl)cc4)cc3O)nn(C)c2C(F)(F)F)cc1 ?
Resp: active

Req: What did the test return for CN1CCN(c2ccc(-c3ccc4ncc(C#N)c(Nc5ccc(F)c(Cl)c5)c4c3)cc2)CC1 ?
Resp: inactive

Req: What did the test return for O=C1CN(CCN2CC(=O)N(Cc3ccccc3)C(=O)C2)CC(=O)N1Cc1ccccc1 ?
Resp: inactive

Req: What did the test return for c1ccc2c(c1)Nc1ccncc1S2 ?
Resp: inactive

Req: What did the test return for COc1ccc(CNC(=O)C(=O)[C@H](Cc2ccccc2)NC(=O)c2[nH]c3ccccc3c(=O)c2C)cc1 ?
Resp: inactive

Req: What did the test return for Nc1ccccc1-c1cc2c(c3c1[nH]c1ccccc13)CCCCC2 ?
Resp: inactive

Req: What did the test return for COc1cc(C(=O)/C=C/c2ccc(OCCCCCC[P+](c3ccccc3)(c3ccccc3)c3ccccc3)cc2)cc(OC)c1OC ?
Resp: active

Req: What did the test return for Cc1ccccc1C(=O)NN ?
Resp: inactive

Req: What did the test return for CCCCCCn1c(-c2ccc(C(=O)O/N=C(\N)c3ccc4c(c3)OCO4)cc2)nc(-c2ccccc2)c1-c1ccccc1 ?
Resp: inactive

Req: What did the test return for NC(=O)Nc1ccc2ncnc(Nc3ccc(Cl)cc3)c2c1 ?
Resp: inactive

Req: What did the test return for Cc1cc(=O)[nH]c(=O)n1Cc1cn(-c2c3ccccc3nc3ccccc23)nn1 ?
Resp: inactive

Req: What did the test return for Cc1ccc(-c2nn(C)c(=O)c3noc(-c4ccc(C)cc4)c23)cc1 ?
Resp: inactive

Req: What did the test return for Cc1onc2c(-c3ccccc3)n[nH]c(=O)c12 ?
Resp: inactive

Req: What did the test return for COc1ccc(CN2c3ccccc3Sc3ccccc32)c(F)c1 ?
Resp: inactive

Req: What did the test return for CCN(CC)c1ccc(C2=NN(C(C)=O)C(c3cc(OC)c(OC)c(OC)c3)C2)cc1 (stereo not given) ?
Resp: inactive

Req: What did the test return for CCCSc1nc2ccc(C)cc2cc1/C=[N+](\[O-])c1ccccc1 ?
Resp: inactive

Req: What did the test return for CCOC(=O)NCCc1ccccc1 ?
Resp: inactive

Req: What did the test return for Cc1cc(Cl)ccc1NS(=O)(=O)c1ccc(-c2cnc(C3CC3)o2)cc1 ?
Resp: inactive

Req: What did the test return for CCOC(=O)c1sc2ncc(-c3ccc(C)cc3)n2c1C ?
Resp: inactive

Req: What did the test return for CC(=O)N1CCN(c2ccc(OCC3CO[C@](Cn4ccnc4)(c4ccc(Cl)cc4Cl)O3)cc2)CC1 (stereo not given in full) ?
Resp: inactive

Req: What did the test return for O=C(Nc1ccc(F)cc1F)c1cc(F)ccc1O ?
Resp: active

Req: What did the test return for CC(=O)OC[C@H]1OC(Sc2sc(C(=O)c3ccc(C)cc3)c(N)c2-c2nc3ccccc3s2)[C@H](OC(C)=O)[C@@H](OC(C)=O)[C@@H]1OC(C)=O (stereo not given in full) ?
Resp: inactive
